Sourced from the supplement of paper PMC9112550

Test system: Escherichia coli TOP10;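 note: peptides expressed intracellularly from a pBAD plasmid library in pooled LB shake-flask culture, induced with 0.3% L-arabinose, DNA abundance read by NGS, three biological replicates, DESeq2 with apeglm shrinkage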
Assay: shrunken log2 fold change of peptide-encoding DNA abundance (4.5 h post-induction vs induction); higher = less antimicrobial activity (less host growth inhibition)
Details: time post-induction: 4.5 h; library: site-saturation at positions 5, 18, 19, 20
Here the recorded shrunken log2 fold change is given for each entry.

[
  {
    "seq_text": "RRIRCRPPRLPRPRPRPQHKPRP",
    "subject_of_test": "Escherichia coli TOP10",
    "shrunken log2 fold change": -0.543
  },
  {
    "seq_text": "RRIRERPPRLPRPRPRPKHLPRP",
    "subject_of_test": "Escherichia coli TOP10",
    "shrunken log2 fold change": -0.202
  },
  {
    "seq_text": "RRIRWRPPRLPRPRPRPGVAPRP",
    "subject_of_test": "Escherichia coli TOP10",
    "shrunken log2 fold change": 0.821
  },
  {
    "seq_text": "RRIRIRPPRLPRPRPRPQPVPRP",
    "subject_of_test": "Escherichia coli TOP10",
    "shrunken log2 fold change": -0.169
  },
  {
    "seq_text": "RRIRNRPPRLPRPRPRPWTEPRP",
    "subject_of_test": "Escherichia coli TOP10",
    "shrunken log2 fold change": -0.249
  },
  {
    "seq_text": "RRIRQRPPRLPRPRPRPILTPRP",
    "subject_of_test": "Escherichia coli TOP10",
    "shrunken log2 fold change": -0.955
  },
  {
    "seq_text": "RRIRYRPPRLPRPRPRPNIHPRP",
    "subject_of_test": "Escherichia coli TOP10",
    "shrunken log2 fold change": -0.98
  },
  {
    "seq_text": "RRIRARPPRLPRPRPRPMWNPRP",
    "subject_of_test": "Escherichia coli TOP10",
    "shrunken log2 fold change": -0.342
  },
  {
    "seq_text": "RRIRYRPPRLPRPRPRPAYEPRP",
    "subject_of_test": "Escherichia coli TOP10",
    "shrunken log2 fold change": -0.184
  },
  {
    "seq_text": "RRIRNRPPRLPRPRPRPRIHPRP",
    "subject_of_test": "Escherichia coli TOP10",
    "shrunken log2 fold change": -0.184
  },
  {
    "seq_text": "RRIRARPPRLPRPRPRPSNDPRP",
    "subject_of_test": "Escherichia coli TOP10",
    "shrunken log2 fold change": -0.213
  },
  {
    "seq_text": "RRIRDRPPRLPRPRPRPHNPPRP",
    "subject_of_test": "Escherichia coli TOP10",
    "shrunken log2 fold change": -0.231
  },
  {
    "seq_text": "RRIRDRPPRLPRPRPRPSESPRP",
    "subject_of_test": "Escherichia coli TOP10",
    "shrunken log2 fold change": -0.000946
  },
  {
    "seq_text": "RRIRTRPPRLPRPRPRPCCEPRP",
    "subject_of_test": "Escherichia coli TOP10",
    "shrunken log2 fold change": -0.105
  },
  {
    "seq_text": "RRIRSRPPRLPRPRPRPGDMPRP",
    "subject_of_test": "Escherichia coli TOP10",
    "shrunken log2 fold change": 0.0129
  }
]
